Species: Homo sapiens
Test: Selectivity ratio of IC50 for human BACE2 to IC50 for human BACE1
measured-attribute: Ratio IC50
One number for each entry.

Here is how some compounds turned out for Ratio IC50.
>  <compound>
CN1C(=O)C(c2ccncc2)(c2cccc(-c3cccnc3)c2)N=C1N (racemic)

>  <measured-attribute>
Ratio IC50

>  <number>
8

$$$$
>  <compound>
CC(C)c1cc(C2(c3cccc(-c4cncnc4)c3)N=C(N)N(C)C2=O)ccn1 (racemic)

>  <measured-attribute>
Ratio IC50

>  <number>
87

$$$$
>  <compound>
COc1ccc(C2(c3cccc(-c4cccnc4F)c3)N=C(N)N(C)C2=O)cc1C (racemic)

>  <measured-attribute>
Ratio IC50

>  <number>
40

$$$$

Q: Look up Ratio IC50: CCc1cc(C2(c3cccc(-c4cncnc4)c3)N=C(N)N(C)C2=O)cc(CC)n1 (racemic)
A: 590

Hello, the source for this data is ChEMBL document CHEMBL1159096, in case you need it.
